Test system: intraocular pressure
Procedure summary: Reducing effect of intraocular pressure after instillation into the rabbit eye (Experiment 1)
Assay type: in vivo, Japanese White rabbits
Measurement context: area over 0 mmHg minus area under 0 mmHg of the IOP-time graph, 0-6 hr; 0.1% solution; minus = reduction
A collection of molecules and their measured Change in I.O.P.
The figure you give is taken to be in mmHg x hr; do not add the unit.

Solved entries:
CCCCC[C@H](O)CC[C@@H]1[C@@H](C/C=C\CCCC(=O)OC(C)C)[C@H](O)C[C@H]1O [Example 1, 13,14-dihydro-PGF2β isopropyl ester] ... -26.35
CCCCC[C@H](O)/C=C/[C@@H]1[C@@H](C/C=C\CCCC(=O)OC(C)C)[C@@H](O)C[C@H]1O [Compared compound 2, PGF2α isopropyl ester] ... 11.36
CCCCC[C@H](O)/C=C/[C@@H]1[C@@H](C/C=C\CCCC(=O)OC(C)C)[C@@H](O)C[C@@H]1O [Compared compound 1, 11-epi-PGF2α isopropyl ester] ... 8.95

Data request, read-out Change in I.O.P., for CCCCC[C@H](O)CC[C@@H]1[C@@H](C/C=C\CCCC(=O)OC)[C@@H](O)C[C@H]1O [Compared compound 3, 13,14-dihydro-PGF2α methyl ester]
-4.35

* * *

Test system: intraocular pressure
Procedure summary: Reducing effect of intraocular pressure after instillation into the rabbit eye (Experiment 1)
Assay type: in vivo, Japanese White rabbits
Measurement context: 0 hr after administration (baseline); 0.1% solution, 50 µl instilled into left eye; vehicle-corrected; average of three samples
Recorded Δ IOP, Reducing Effects of Intraocular Pressure, one value per entry.
Answer format: numeric, mm Hg implied, no suffix.

Examples with their reported Δ IOP, Reducing Effects of Intraocular Pressure follow.
CCCCC[C@H](O)CC[C@@H]1[C@@H](C/C=C\CCCC(=O)OC)[C@@H](O)C[C@H]1O [Compared compound 3, 13,14-dihydro-PGF2α methyl ester] ... 0
CCCCC[C@H](O)/C=C/[C@@H]1[C@@H](C/C=C\CCCC(=O)OC(C)C)[C@@H](O)C[C@@H]1O [Compared compound 1, 11-epi-PGF2α isopropyl ester] ... 0
CCCCC[C@H](O)CC[C@@H]1[C@@H](C/C=C\CCCC(=O)OC(C)C)[C@H](O)C[C@H]1O [Example 1, 13,14-dihydro-PGF2β isopropyl ester] ... 0

// lookup Δ IOP, Reducing Effects of Intraocular Pressure for CCCCC[C@H](O)/C=C/[C@@H]1[C@@H](C/C=C\CCCC(=O)OC(C)C)[C@@H](O)C[C@H]1O [Compared compound 2, PGF2α isopropyl ester]
0

* * *

Test system: intraocular pressure
Procedure summary: Reducing effect of intraocular pressure after instillation into the rabbit eye (Experiment 1)
Format: in vivo, Japanese White rabbits
Measurement context: 0.1% solution
Observable: initial elevation of the intraocular pressure

CCCCC[C@H](O)CC[C@@H]1[C@@H](C/C=C\CCCC(=O)OC)[C@@H](O)C[C@H]1O [Compared compound 3, 13,14-dihydro-PGF2α methyl ester] ... showed initial elevation
CCCCC[C@H](O)/C=C/[C@@H]1[C@@H](C/C=C\CCCC(=O)OC(C)C)[C@@H](O)C[C@@H]1O [Compared compound 1, 11-epi-PGF2α isopropyl ester] ... showed initial elevation

* * *

Test system: intraocular pressure
Procedure summary: Reducing effect of intraocular pressure after instillation into the rabbit eye (Experiment 1)
Assay type: in vivo, Japanese White rabbits
Measurement context: 6 hr after administration; 0.1% solution, 50 µl instilled into left eye; vehicle-corrected; average of three samples
Recorded Δ IOP, Reducing Effects of Intraocular Pressure for the following compounds
Answer as a quantity: numeral, then unit.

CCCCC[C@H](O)/C=C/[C@@H]1[C@@H](C/C=C\CCCC(=O)OC(C)C)[C@@H](O)C[C@@H]1O [Compared compound 1, 11-epi-PGF2α isopropyl ester] ... 0.2 mm Hg

Given the compound CCCCC[C@H](O)CC[C@@H]1[C@@H](C/C=C\CCCC(=O)OC(C)C)[C@H](O)C[C@H]1O [Example 1, 13,14-dihydro-PGF2β isopropyl ester] , what is its reported Δ IOP, Reducing Effects of Intraocular Pressure?
-5.3 mm Hg

Name the recorded Δ IOP, Reducing Effects of Intraocular Pressure for CCCCC[C@H](O)CC[C@@H]1[C@@H](C/C=C\CCCC(=O)OC)[C@@H](O)C[C@H]1O [Compared compound 3, 13,14-dihydro-PGF2α methyl ester] .
-4.3 mm Hg

Give its Δ IOP, Reducing Effects of Intraocular Pressure value. Item: `CCCCC[C@H](O)/C=C/[C@@H]1[C@@H](C/C=C\CCCC(=O)OC(C)C)[C@@H](O)C[C@H]1O`
-5.8 mm Hg

Values compiled from patent EP0628545A1.
